test system: Leishmania donovani; experiment: Antimicrobial activity against SSG-resistant Leishmania donovani 39 promastigote assessed as inhibition of parasite growth after 72 hrs by MTS assay; type: functional, organism-based; conditions: Leishmania donovani, 39, 72 h
pIC50: −log10 of the molar value.
Measured Attribute: pIC50

For orientation, consider the following solved cases.
Consider the compound `O=c1cc(-c2ccc(OCCOCCOCCOCCOc3ccc(-c4cc(=O)c5ccccc5o4)cc3)cc2)oc2ccccc12` and give its measured pIC50. < 4.62

Consider the compound `O=c1cc(-c2ccc(OCCOCCOCCOCCOc3ccc(-c4cc(=O)c5c(O)cccc5o4)cc3)cc2)oc2cccc(O)c12` and give its measured pIC50. < 4.62

# evaluate next
Consider the compound `O=c1cc(-c2ccc(OCCOCCN(CCOCCOc3ccc(-c4cc(=O)c5ccccc5o4)cc3)Cc3ccnc(Br)c3)cc2)oc2ccccc12` and give its measured pIC50. < 4.30
